- test_details: Acute toxicity (mice)
- measurement_setup: mouse, in vivo, ip, read-out: Toxicity (mice) LD 50
experimental_endpoint: LD50 (mg/kg)
Provide the reading as a plain figure in mg/kg.

// worked examples, LD50 included
INSERT INTO measurements (molecule_smiles, experimental_endpoint, recorded_value) VALUES
  ('COc1cccc(C(=O)N[C@@H]2C[C@H]3CCC[C@@H](C2)N3Cc2ccccc2)c1OC', 'LD50', 100),
  ('COc1cccc(C(=O)N[C@@H]2C[C@H]3CC[C@@H](C2)N3Cc2ccc(C)cc2)c1OC', 'LD50', 100),
  ('CCOc1cccc(C(=O)N[C@@H]2C[C@H]3CC[C@@H](C2)N3Cc2ccccc2)c1OC', 'LD50', 70),
  ('COc1cc(N)c(Cl)cc1C(=O)N[C@@H]1C[C@H]2CC[C@@H](C1)N2Cc1cccc(F)c1', 'LD50', 200),
  ('CCOc1c(OC)cccc1C(=O)N[C@@H]1C[C@H]2CC[C@@H](C1)N2Cc1ccccc1', 'LD50', 76),
  ('COc1cccc(C(=O)N[C@@H]2C[C@H]3CC[C@@H](C2)N3Cc2ccc(Cl)cc2)c1OC', 'LD50', 220);

Challenge: Supply LD50 value. Item: COc1cc(N)c(Br)cc1C(=O)N[C@@H]1C[C@H]2CC[C@@H](C1)N2Cc1ccccc1F
Response given: 250

Challenge: Supply LD50 value. Item: CCOc1cccc(C(=O)N[C@@H]2C[C@H]3CC[C@@H](C2)N3Cc2ccccc2)c1OCC
Response given: 53

Challenge: Supply LD50 value. Item: COc1cccc(C(=O)N[C@@H]2C[C@H]3CC[C@@H](C2)N3Cc2cccc(C)c2)c1OC
Response given: 90

Challenge: Supply LD50 value. Item: COc1cc(SC)cc(C(=O)N[C@@H]2C[C@H]3CC[C@@H](C2)N3Cc2ccccc2)c1OC
Response given: 120
